The reported numbers originate from paper PMC12282101.

test system: Huh-7.5.1 cells; experiment: Cell viability in the chemical screen (Cell TiterGlo); details: 10 µM compound, 72 h
endpoint: Viability Percent DMSO (Percent DMSO)
Report only the number, with the unit Percent DMSO understood.

For orientation, consider the following solved cases.
[
  {
    "compound": "COc1cnc(-n2cnc(C)n2)c2c1c(C(=O)C(=O)N1CCN(C(=O)c3ccccc3)CC1)cn2COP(=O)(O)O",
    "endpoint": "Viability Percent DMSO",
    "readout.value": 129
  },
  {
    "compound": "CC[n+]1c(-c2ccccc2)c2cc(N)ccc2c2ccc(N)cc21 [Ethidium bromide]",
    "endpoint": "Viability Percent DMSO",
    "readout.value": 85
  },
  {
    "compound": "CC(C)=O.COC(=O)N[C@H](C(=O)N1CC2(CC2)C[C@H]1c1ncc(-c2ccc3c(c2)C(F)(F)c2cc(-c4ccc5nc([C@@H]6[C@H]7CC[C@H](C7)N6C(=O)[C@@H](NC(=O)OC)C(C)C)[nH]c5c4)ccc2-3)[nH]1)C(C)C",
    "endpoint": "Viability Percent DMSO",
    "readout.value": 172
  },
  {
    "compound": "NC(=O)c1nc(F)c[nH]c1=O",
    "endpoint": "Viability Percent DMSO",
    "readout.value": 128
  },
  {
    "compound": "O=C(Nc1ncc([N+](=O)[O-])s1)c1ccccc1O [Tizoxanide]",
    "endpoint": "Viability Percent DMSO",
    "readout.value": 72
  },
  {
    "compound": "O=C(O)c1cc(=O)[nH]c(=O)[nH]1",
    "endpoint": "Viability Percent DMSO",
    "readout.value": 105
  }
]

Query: # lookup: Huh-7.5.1 cells Viability Percent DMSO, key = C[C@@H]1O[C@@H](O[C@H]2[C@H](Oc3cc(O)c4c(c3)O[C@H](c3ccc(O)cc3)CC4=O)O[C@H](CO)[C@@H](O)[C@@H]2O)[C@H](O)[C@H](O)[C@H]1O
Response: 115

---

system: Huh-7.5.1 cells; assay: Cell viability in the chemical screen (Cell TiterGlo); details: 10 µM compound, 72 h
Structures can show the parent of a compound that is named as a salt.
endpoint: Viability Percent DMSO (Percent DMSO)
// return numeric value only (unit: Percent DMSO, not printed)

Reference set (4 entries):
[
  {
    "compound": "CC(=O)OCC(CCn1cnc2cnc(N)nc21)COC(C)=O",
    "target.or.test.system": "Huh-7.5.1 cells",
    "readout.value": 123
  },
  {
    "compound": "COc1ccc(C2CNC(=O)C2)cc1OC1CCCC1 (centres unmarked)",
    "target.or.test.system": "Huh-7.5.1 cells",
    "readout.value": 113
  },
  {
    "compound": "Nc1nc(O)c2ncn(COC(CO)CO)c2n1",
    "target.or.test.system": "Huh-7.5.1 cells",
    "readout.value": 115
  },
  {
    "compound": "O=C(/C=C/c1ccc(O)cc1)c1ccc(O)cc1O",
    "target.or.test.system": "Huh-7.5.1 cells",
    "readout.value": 100
  }
]

Please turn your attention to the following entry.
Query: Consider the compound CC(C)[C@H](N)C(=O)OCC(CO)OCn1cnc2c(=O)nc(N)[nH]c21 (some centres unmarked) [Valganciclovir hydrochloride] tested on Huh-7.5.1 cells; state its Viability Percent DMSO.
Response: 110

---

tested on: Huh-7.5.1 cells; experiment: Cell viability in the chemical screen (Cell TiterGlo); settings: 10 µM compound, 72 h
Counter-ions that a name gives are not always drawn.
endpoint: Viability Percent DMSO (Percent DMSO)
Report the value in Percent DMSO with no unit label.

Query: State measured Viability Percent DMSO of the compound CCC[C@H](NC(=O)[C@@H]1[C@H]2CCC[C@H]2CN1C(=O)[C@@H](NC(=O)[C@@H](NC(=O)c1cnccn1)C1CCCCC1)C(C)(C)C)C(=O)C(=O)NC1CC1 with Huh-7.5.1 cells.
Response: 119

Query: Fetch value of Viability Percent DMSO on Huh-7.5.1 cells for CC[C@@H](CO)NCCN[C@@H](CC)CO [Ethambutol dihydrochloride] .
Response: 112

Query: Give Viability Percent DMSO only, for O=C(O)c1ccccc1C(=O)Nc1ccc(S(=O)(=O)Nc2nccs2)cc1 , using Huh-7.5.1 cells data.
Response: 112

Query: Please report Viability Percent DMSO with Huh-7.5.1 cells for item COc1c(-c2ccc3cc(NS(C)(=O)=O)ccc3c2)cc(-n2ccc(=O)[nH]c2=O)cc1C(C)(C)C .
Response: 116

Query: Answer briefly: Viability Percent DMSO recorded on Huh-7.5.1 cells for Cc1c(O)cccc1C(=O)N[C@@H](CSc1ccccc1)[C@H](O)CN1C[C@H]2CCCC[C@H]2C[C@H]1C(=O)NC(C)(C)C [Nelfinavir Mesylate]
Response: 88

Query: State Viability Percent DMSO on Huh-7.5.1 cells. Entry: COc1cc2c(cc1Cc1cccc(Cl)c1F)c(=O)c(C(=O)O)cn2[C@H](CO)C(C)C
Response: 118

Query: GET Viability Percent DMSO where system = Huh-7.5.1 cells and item = C[C@H]1CO[C@@H]2Cn3cc(C(=O)NCc4ccc(F)cc4F)c(=O)c(O)c3C(=O)N12
Response: 170

Query: # lookup: Huh-7.5.1 cells Viability Percent DMSO, key = CC(C)(C)C(=O)OCOP(=O)(COCCn1cnc2c(N)ncnc21)OCOC(=O)C(C)(C)C
Response: 74

---

experiment: in vitro; details: human, CC50, Huh-7.5 cells, cellular ATP assay
endpoint: CC50 (µM)
I only need the number, in µM, no unit after it.

Query: Indicate its recorded CC50; the compound in question is COC1=C2C[C@@H](C)C[C@H](OC)[C@H](O)[C@@H](C)/C=C(\C)[C@H](OC(N)=O)[C@@H](OC)/C=C\C=C(/C)C(=O)NC(=CC1=O)C2=O [Geldanamycin]
Response: 5.1

---

tested on: 293T cells; assay: Cytotoxicity in 293T cells
endpoint: CC50

Query: State measured CC50 of the compound C=CCNC1=C2C[C@@H](C)C[C@H](OC)[C@H](O)[C@@H](C)/C=C(\C)[C@H](OC(N)=O)[C@@H](OC)/C=C\C=C(/C)C(=O)NC(=CC1=O)C2=O with 293T cells.
Response: > 1000 nM

---

system: Huh-7.5.1 cells; assay: Cell viability in the chemical screen (Cell TiterGlo); settings: 10 µM compound, 72 h
Structures can show the parent of a compound that is named as a salt.
Form field: Viability Percent DMSO (one value per entry).
Please respond with the number in Percent DMSO and leave the unit unwritten.

[
  {
    "molecule": "CC1(C)[C@@H](O[C@H]2O[C@H](C(=O)O)[C@@H](O)[C@H](O)[C@H]2O[C@@H]2O[C@H](C(=O)O)[C@@H](O)[C@H](O)[C@H]2O)CC[C@]2(C)[C@H]3C(=O)C=C4[C@@H]5C[C@@](C)(C(=O)O)CC[C@]5(C)CC[C@@]4(C)[C@]3(C)CC[C@@H]12.N.N [Diammonium Glycyrrhizinate]",
    "endpoint": "Viability Percent DMSO",
    "readout.value": 116
  },
  {
    "molecule": "CCOC(=O)CCC(=O)O[C@H]1[C@H](O[C@@H]2[C@@H](C)[C@H](O[C@H]3C[C@@](C)(OC)[C@@H](O)[C@H](C)O3)[C@@H](C)C(=O)O[C@H](CC)[C@@](C)(O)[C@H](O)[C@@H](C)C(=O)[C@H](C)C[C@@]2(C)O)O[C@H](C)C[C@@H]1N(C)C [Erythromycin ethylsuccinate]",
    "endpoint": "Viability Percent DMSO",
    "readout.value": 107
  },
  {
    "molecule": "C[C@H]1CC[C@@]2(O)C(C)(C)[C@@H]3CC[C@@]2(C)[C@H]1C3",
    "endpoint": "Viability Percent DMSO",
    "readout.value": 122
  },
  {
    "molecule": "CC(N)C12CC3CC(CC(C3)C1)C2 (stereo not shown) [Rimantadine hydrochloride]",
    "endpoint": "Viability Percent DMSO",
    "readout.value": 98
  },
  {
    "molecule": "Nc1ccn([C@@H]2CS[C@H](CO)O2)c(=O)n1",
    "endpoint": "Viability Percent DMSO",
    "readout.value": 120
  }
]

Query: State its Viability Percent DMSO for this molecule: Cc1cc(C)c(Nc2ccnc(Nc3ccc(C#N)cc3)n2)c(C)c1
Response: 114

Query: Provide one value: measured Viability Percent DMSO of Cc1nc(Nc2ccc(F)cc2)nc(N2CCc3ccccc3C2C)c1C (stereo not shown) [Revaprazan hydrochloride]
Response: 115

---

system: Huh-7.5.1 cells; experiment: Cell viability in the chemical screen (Cell TiterGlo); details: 10 µM compound, 72 h
endpoint: Viability Percent DMSO (Percent DMSO)
Give your result in Percent DMSO as a bare value.

Solved cases (3 shown):
[
  {
    "input.smiles": "COC[C@H]1C[C@@H](c2ncc(-c3ccc4c(c3)COc3cc5c(ccc6nc([C@@H]7CC[C@H](C)N7C(=O)[C@@H](NC(=O)OC)C(C)C)[nH]c65)cc3-4)[nH]2)N(C(=O)[C@H](NC(=O)OC)c2ccccc2)C1",
    "unit.abbrev": "Percent DMSO",
    "Viability Percent DMSO": 121
  },
  {
    "input.smiles": "CC(C)c1cc(Oc2c(Cl)cc(-n3nc(C#N)c(=O)[nH]c3=O)cc2Cl)n[nH]c1=O",
    "unit.abbrev": "Percent DMSO",
    "Viability Percent DMSO": 118
  },
  {
    "input.smiles": "O=c1[nH]c(=O)n([C@H]2C[C@H](O)[C@@H](CO)O2)cc1I",
    "unit.abbrev": "Percent DMSO",
    "Viability Percent DMSO": 103
  }
]

Query: Specify Viability Percent DMSO for O=c1[nH]cc(F)c(=O)[nH]1 and stop.
Response: 103

Query: Find the measured Viability Percent DMSO of NC(=O)N1CCC(CC(=O)N2CCC([C@H]3c4ncc(Br)cc4CCc4cc(Cl)cc(Br)c43)CC2)CC1 and report it.
Response: 167

Query: Give the reported value of Viability Percent DMSO for this record: CC1(C)O[C@H]2CC(=O)OC[C@]23[C@H]2CC[C@@]4(C)[C@H](c5ccoc5)OC(=O)[C@H]5O[C@]54[C@]2(C)C(=O)C[C@@H]13
Response: 111

Query: Retrieve Viability Percent DMSO measured for Cc1cccc(C)c1OCC(=O)N[C@@H](Cc1ccccc1)[C@@H](O)C[C@H](Cc1ccccc1)NC(=O)[C@H](C(C)C)N1CCCNC1=O and print it.
Response: 126
